Molecular target: Jun-Jun bZIP R261A (human, UniProt P05412 252-315, R261A)
Sequence (P05412 252-315 R261A): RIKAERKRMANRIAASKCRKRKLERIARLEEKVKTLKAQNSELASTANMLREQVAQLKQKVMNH
Experiment: ITC
Quantity Kind: Kd (nM)

| Binder | Result |
| --- | --- |
| TRE duplex 15-mer (dsDNA) DNA 1: CGCGTGACTCACCCC DNA 2: GGGGTGAGTCACGCG | 380 |
